Target: PMAT (equilibrative nucleoside transporter 4) (Homo sapiens)
Sequence (Q7RTT9 whole entry): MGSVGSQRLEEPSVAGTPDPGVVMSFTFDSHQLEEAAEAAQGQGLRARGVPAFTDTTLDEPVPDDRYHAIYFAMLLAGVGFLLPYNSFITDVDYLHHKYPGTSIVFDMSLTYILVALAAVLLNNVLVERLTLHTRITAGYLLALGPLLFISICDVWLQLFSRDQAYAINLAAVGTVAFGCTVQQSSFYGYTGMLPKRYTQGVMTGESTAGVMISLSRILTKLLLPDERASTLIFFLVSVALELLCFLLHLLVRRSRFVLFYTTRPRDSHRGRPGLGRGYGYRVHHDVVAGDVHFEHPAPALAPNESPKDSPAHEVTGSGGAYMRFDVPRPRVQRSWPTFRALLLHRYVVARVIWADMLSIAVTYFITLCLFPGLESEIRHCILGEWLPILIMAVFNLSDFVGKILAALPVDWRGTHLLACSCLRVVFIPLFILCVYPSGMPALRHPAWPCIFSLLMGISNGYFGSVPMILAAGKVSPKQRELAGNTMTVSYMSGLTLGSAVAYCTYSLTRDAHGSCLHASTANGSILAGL
Experiment: Increase of human PMAT-mediated drug uptake expressed in Xenopus laevis oocytes in NaCl buffer at pH 6 at 100 uM after 60 mins relative to control
Settings: Xenopus laevis oocytes expressing human PMAT
Measurement Type: uptake ratio at 1 h, 100 µM

QUERY: Dear colleague, I am looking for the recorded uptake ratio at 1 h, 100 µM of the following compound: NCCc1c[nH]cn1
RESULT: 2
